Here, each record is paired with measured apparent KD of MS2 coat protein data.
Test system: MS2 coat protein
Assay: apparent KD of MS2 coat protein; higher = weaker reporter binding
Conditions: Eterna round: R107; input ligand: tryptophan 2.4 mM
State the value, then name its unit.

Example sequences with recorded apparent KD of MS2 coat protein:
{"BIOPOLYMER SEQUENCE": "CAGCCACAUGAGGAUCACCCAUGUGAUGAUACCAGCUUCGUCUUAAGCCCUUGGCAGCAUAUCUCUUUGUUCUCAUACAUAGCAU [theeternabot_sameState_MS2_Theo_A_16]", "ENDPOINT VALUE": "11.4 nM"}
{"BIOPOLYMER SEQUENCE": "AUCACUGUGAAAGAUACCAGCGCCCUACCUAUCUUCUGUUACAUGAGGAUCACCCAUGUUCGCCCUUGGCAGCUUGAGAUGGAUC [theeternabot_exclusion_MS2_Theo_B_11]", "ENDPOINT VALUE": "44.9 nM"}

// returns reported apparent KD of MS2 coat protein for input AGGAACAUGAGGAUCACCCAUGUAAGCGAUACCAGUGAUAUGUUGCGCCCUUGGCAGCGCAAGUGUGUGUGAAAGAUGUAAGAUU [Eclusion - Theophylline A / A]
16.7 nM

Which apparent KD of MS2 coat protein reading was recorded for the sequence UGUUUGGUGCGCGAGUGUUGGAUAAUUGAUACCAGUGUAGAUGUACGCCCUUGGCAGCGAAUCCGAACAUGAGGAUCACCCAUGU [5.aA] ?
30.2 nM

Sample AGUGGUGCAACUGAUACCAGAUUUAUACGAGACAUGAGGAUCACCCAUGUCGAAAGACAAAUCCCUUGGCAGCAGACACGAUCCC [theeternabot_sameState_MS2_Theo_B_25] — what was its apparent KD of MS2 coat protein?
9.65 nM

---

Test system: MS2 coat protein
Assay: apparent KD of MS2 coat protein; designed switch direction (-1 OFF switch, 1 ON switch): -1; higher = weaker reporter binding
Settings: input ligand: FMN 200 uM
Collected apparent KD of MS2 coat protein values appear next to each entry.
I only need the number, in nM, no unit after it.

{"BIOPOLYMER SEQUENCE": "UGAGUGCUGCGAGGAUAUACAUGAGGAUCACCCAUGUUUUCGUGUGAGGCUUUGCCUCACACGAAGUAGAAGGCGCAGUACUCU [JL ENG2 1.12] (Eterna round: R96, puzzle: Exclusion NG 2)", "apparent KD of MS2 coat protein (nM)": 10.8}

What apparent KD of MS2 coat protein value was documented for this sequence, CUGAACCCGGUAGGAUAUAUUGUGGGCAAGCAUGGAACGACAUGAGGAUCACCCAUGUAAUUUAGGUAGAAGGGCCAAAAGAUU [Excl-NG2-LRO09] (Eterna round: R96, puzzle: Exclusion NG 2) ?
34.6

# input sequence: AUGUUGCGAGGAUAUAUAAGGGUAUAUUCAUAAGAUAUGGAACAUGAGGAUCACCCAUGUAGAAGGUGCAUAAC [JR_Ex2_Sub042] (Eterna round: R97, puzzle: Exclusion 2) ; wanted: its apparent KD of MS2 coat protein
200

Need apparent KD of MS2 coat protein, item UGCAGACGAGGAUAUAAAUGAUAUAACAUGAGGAUCACCCAUGUACGAUCGAAUGAUCGUUUAGAAGGCGUCUGCU [E5/11-A3] (Eterna round: R97, puzzle: Exclusion 5)
14.1

Endpoint output: apparent KD of MS2 coat protein of GGCAUGCAAGGAUAUACUUACAGUGAUGUUCGAAUAAGGCUACUUGAGGAUCACCCAAGUAGAAGGUGCAUGCC [Exclusion 2 (Mod JL EX2 4.74 Vienna UCT mod of Mamaed)] (Eterna round: R97, puzzle: Exclusion 2) . Value?
203

---

Test system: K4 kissing-loop RNA reporter;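 also: bound reporter read as fluorescence of individual clusters on recovered sequencing chips by microscopy, with normalized cluster intensities fitted with a binding model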
Assay: apparent KD of K4 kissing-loop reporter; higher = weaker reporter binding
Settings: Eterna round: R107; input ligand: tryptophan 2.4 mM
Is apparent KD of K4 kissing-loop reporter at least 200 nM? Then yes. If not, no.

Completed entries (count: 3):
{"BIOPOLYMER SEQUENCE": "AACUCUCAGACACCUGAGUGAUGUUCAGGCCGAGGACCGGUACGGCCGCCACUCGGGUCUGAGAGAGGUUAUCAAAGAUAGCCAA [Omei KL Tryp A SS A v3]", "ANSWER LABEL": "yes"}
{"BIOPOLYMER SEQUENCE": "CCUAGUCGGAUACUCAAUCCAAUGCGAGAUACCAGCGGUCUUACGCGCCCUUGGCAGCUCAUAAUGAUGAACCAGUGAUGUUGGG [theeternabot_sameState_KL_Theo_A_40]", "ANSWER LABEL": "yes"}
{"BIOPOLYMER SEQUENCE": "AAAAUAAAGCAGUCAAUCGGAGUGAUGUUCCGAGGACCGGUACGGCCGCCACUCGAGAGUCCAAAGGACUCAUGGCGAGACUGCA [#SwitchBubble 17 #K4Early]", "ANSWER LABEL": "no"}

Determine whether this sequence has apparent KD of K4 kissing-loop reporter no lower than 200 nM: UGUCAUUGGUCGGCCGCCACUUUAUAUGGAGUGAUGUUUUGUAGAUUGUGUUGAAAGGUGUGGUGAAGGACCGGGACCGAUGACU [FiskerMod 25 - Jieux - Same State - Tryptophan B]
yes

API: above_or_equal(metric=apparent KD of K4 kissing-loop reporter, cutoff=200 nM) for item UGGAGUUGACGAAAAGUCAACUCCGGAGAAGGAGCGGACGAAAGUCCAGGUAGGUCGCUCCCUACCAGUGAUGUUGGUACUGAAA
no

Does CAAACUCUGACGGCCGCCACUAAUCGUGUAACAGUGAUGUUGUUACAUCAAAGAUGGGUUGCGUGUAGGACCGGGUCGACGCAAA [theeternabot_exclusion_KL_Trp_B_48] have a reported apparent KD of K4 kissing-loop reporter of at least 200 nM?
no

Is reported apparent KD of K4 kissing-loop reporter greater than or equal to 200 nM here: UAUUUAAUUUUUAAUUUUUAAAUUGCUGAUACCAGAGCCAAUUGGCUCCCUUGGCAGCGGAUCGAGUGAUGUUCGUAUAAUUUAA [AK1 SS Theophylline A]
no

Does the reported apparent KD of K4 kissing-loop reporter for GAGGUACAGGCGGCCGCCACUAGUGAUGUUAGUGAUAGAAGAUAUAGUAAAUAUCGGCAUUUAGAUAGGACCGGGCCUGGUGGUG [ffdfcmullin] fall at or above the 200 nM mark?
yes

---

Test system: MS2 coat protein
Test: apparent KD of MS2 coat protein; designed switch direction (-1 OFF switch, 1 ON switch): 1; higher = weaker reporter binding
Settings: Eterna round: R95; input ligand: FMN 200 uM
Decide using apparent KD of MS2 coat protein: a value greater than or equal to 100 nM is Fulfilled, a smaller one is Not fulfilled.

{"BIOPOLYMER SEQUENCE": "UAAACUAGUUAUAGUGUAAUGCAUAUUAUACAUGAGGAUCACCCAUGUGAUGGUUGGUAUGAUUUUGUUCGUCUUAA [JR_SHM208A_Sub079] (puzzle: Sensor for hsa-mir-208a)", "ANSWER LABEL": "Fulfilled"}
{"BIOPOLYMER SEQUENCE": "UACAAUCUAUCUGAGGAUAUCAUGAAAAAAACAUGAGGAUCACCCAUGUGCAGGAAAACUGCAUAUGAGAAGGCAGAUAGAUUGU [salish99_SS2_r3_006] (puzzle: Same State 2)", "ANSWER LABEL": "Not fulfilled"}
{"BIOPOLYMER SEQUENCE": "AUAAGUUCGAUGCUCGUCUCUCCGUACAAACAUGAGGAUCACCCAUGUGAUCGAGAAGUAGCCCGAUCAGUAUGGCC [Soainge] (puzzle: Sensor for hsa-mir-208a)", "ANSWER LABEL": "Not fulfilled"}

From here, focus on the item given below.
Evaluate CUGCUACAUGAGGAUCACCCAUGUUGGAGUGAUGCAGGAUAUGUGUGACCAGAAGAUGAAACAGAAGGGCAAAGAA [JR_SS!_Sub004] (puzzle: Same State 1) : apparent KD of MS2 coat protein at minimum 100 nM?
Not fulfilled

---

Test system: MS2 coat protein
Test: apparent KD of MS2 coat protein; higher = weaker reporter binding
Settings: Eterna round: R107; input ligand: arginine 13.2 mM
ASSAY ENDPOINT: apparent KD of MS2 coat protein (µM)
Just the number in µM, nothing appended.

{"BIOPOLYMER SEQUENCE": "ACACAUGACGCGGCCGCCACUGCAACAUGAGGAUCACCCAUGUCACCCAUGUAUGACAUGAGGAUCAGGACCGGGCGUGUGUGGA [Same State Tryptophan B 3]", "EXPERIMENTAL SYSTEM": "MS2 coat protein", "ASSAY ENDPOINT": "apparent KD of MS2 coat protein", "ENDPOINT VALUE": 0.615}

Given the entry GAUAUACGUGCGGCCGCCACUGAGUGGCGGGCGUGUCGAGUUACAUGAGGAUCACCCAUGUCACUCAGGACCGGGCACGGAAUUU [Soveri] , report its measured apparent KD of MS2 coat protein.
0.00764

Item under review: UGUAUGUGAUCUGAUACCAGCGUUGAUAACCUGAGGAUCACCCUGGUAAGGCGAAAGCCACGCCCUUGGCAGCAGAUCGCAUACU . Reported apparent KD of MS2 coat protein?
0.158
